tested on: RAW264.7; test: Antiinflammatory activity in mouse RAW264.7 cells assessed as inhibition of LPS-induced nitric oxide production incubated for 15 mins prior to LPS challenge measured after 20 hrs by Griess assay; assay type: functional, cell-based
pIC50: −log10 of the molar value.
Think of 5 as a floor: if pIC50 stands on it or above, it is Satisfied; beneath it, Not satisfied.

> print(dat)
                                givensmiles          group
1  CC[C@@H](C)C[C@]1(C)C=C/C(=C2/C(=O)O[C@H](CC(=O)OC)C2=O)O1      Satisfied
2        C/C=C/C1=CC=C/C(=C2\C(=O)CNC2=O)O1      Satisfied
3  C/C=C(\C)c1cc(O)c(C)c2c1Oc1cc(O)c(Cl)c(C)c1C(=O)O2  Not satisfied
4  C/C=C(\C)c1c(Br)c(O)c(C)c2c1Oc1cc(O)c(Br)c(C)c1C(=O)O2  Not satisfied
5   Cc1cc(O)c2c(c1O)C(=O)c1cc(O)cc(O)c1C2=O  Not satisfied
6                 CNC(=N)NCCC[C@H](N)C(=O)O  Not satisfied

====

assay: Cytotoxicity against mouse RAW264.7 cells assessed as cell survival after 20 hrs by SRB assay; format: cell-based; settings: RAW264.7 cells, read-out: Survival
measuredEndpoint: viability at 20 h

> print(dat)
                                givensmiles   measuredendpoint  reportedmeasurement
1   Cc1cc(O)c2c(c1O)C(=O)c1cc(O)cc(O)c1C2=O  viability at 20 h                > 80%
2        C/C=C/C1=CC=C/C(=C2\C(=O)CNC2=O)O1  viability at 20 h                > 80%
3  C/C=C(\C)c1cc(O)c(C)c2c1Oc1cc(O)c(Cl)c(C)c1C(=O)O2  viability at 20 h                > 80%
